molecular target: T1, cTnI quality control product recombinant protein (human, UniProt P19429 1-210, limits assumed); experiment: AMC biosensor, antibody on sensor
T1 construct: the assay paragraphs only say cTnI; also called cardiac troponin I; cTnI antigen
T1 sequence (P19429 whole entry): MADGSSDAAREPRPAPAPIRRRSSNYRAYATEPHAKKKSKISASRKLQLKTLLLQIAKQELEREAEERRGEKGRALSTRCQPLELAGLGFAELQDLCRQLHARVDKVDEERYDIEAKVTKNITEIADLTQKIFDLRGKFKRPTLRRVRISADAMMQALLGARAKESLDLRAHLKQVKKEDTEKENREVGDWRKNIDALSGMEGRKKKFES
Mark t only when koff stays strictly below 0.0002 s⁻¹. Values equal to the cut-off are f.

Mutation 1-53 (antibody, V domains shown) VH: QVQLQQSGTELAKPGASVKFSCKASGYTFSSYWMYWIKQRPGQGLEWIGYINPSTGHTDYNQRFKDKATLTADKSSSTAYMQLNSLTSEDSAVYYCARKYYGPFGMDYWGQGTSVTVSS VL: EIFLTQSPAIMSASPGEKVTMTCSASTTVSYVHWYQQKSGTSPKRWIYDTSKLASGIPVRFSGSGSGTSYSLTISSMEAEDAATYYCQQWSTNPYTFGGGTKLEIKR: f
Mutation 1-4 (antibody, V domains shown) VH: QVQLQQSGTELAKPGASVKFSCKASGYTFSTYWMYWIKQRPGQGLEWIGYINPSSGHTDYNQRFKDKATLTADKSSSTAYMQLNSLTSEDSAVYYCARKYYGPFGMDYWGQGTSVTVSS VL: EIFLTQSPAIMSASPGEKVTMTCSASTTVSYVHWYQQKSGTSPKRWLYDTSKIASGIPVRFSGSGSGTSYSLTISSMEAEDAATYYCQQWSTNPYTFGGGTKLEIKR: f
Mutation 1-52 (antibody, V domains shown) VH: QVQLQQSGTELAKPGASVKFSCKASGYTFTTYWMYWIKQRPGQGLEWIGYINPSTGHTDYNQRFKDKATLTADKSSSTAYMQLNSLTSEDSAVYYCARRYWGPFGMDYWGQGTSVTVSS VL: EIFLTQSPAIMSASPGEKVTMTCSASTSVSYVHWYQQKSGTSPKRWIYDTSKIASGIPVRFSGSGSGTSYSLTISSMEAEDAATYYCQQWSSNPYTFGGGTKLEIKR: t
Mutation 1-38 (antibody, V domains shown) VH: QVQLQQSGTELAKPGASVKFSCKASGYTFTSYWMYWIKQRPGQGLEWIGYLNPSSGHTDYNQKFKDKATLTADKSSSTAYMQLNSLTSEDSAVYYCARKYYGPFGMDYWGQGTSVTVSS VL: EIFLTQSPAIMSASPGEKVTMTCSASSTVSYVHWYQQKSGTSPKRWLYDTSKLASGIPVRFSGSGSGTSYSLTISSMEAEDAATYYCQQWSSNPYTFGGGTKLEIKR: f

Please look at the following binder next.
Strictly below 0.0002 s⁻¹ in koff? Mutation 1-40 (antibody, V domains shown) VH: QVQLQQSGTELAKPGASVKFSCKASGYTFSTYWMYWIKQRPGQGLEWIGYLNPSSGHTDYNQRFKDKATLTADKSSSTAYMQLNSLTSEDSAVYYCARRYFGPFGMDYWGQGTSVTVSS VL: EIFLTQSPAIMSASPGEKVTMTCSASSTVSYVHWYQQKSGTSPKRWLYDTSKIASGIPVRFSGSGSGTSYSLTISSMEAEDAATYYCQQWSTNPYTFGGGTKLEIKR
t
